Taken from PubChem BioAssay (NCI).

# Tested on: OVCAR-3 ovarian
# ASSAY_SUMMARY: NCI tumour cell line growth inhibition, 48 h
Recorded TGI by entry
READOUT_KIND: TGI (µM)

COMPOUND	EXPERIMENTAL_SYSTEM	READOUT_KIND	RELATIONAL_OPERATOR	QUANTITATIVE_RESULT
CC1=C(C(=O)OC(C)C)C(c2cccc([N+](=O)[O-])c2)C(C(=O)OC(CO[N+](=O)[O-])CO[N+](=O)[O-])=C(C)N1 (stereo not given)	OVCAR-3 ovarian	TGI	>	22.1
Cc1cc(C#Cc2ccccc2)ccc1-n1c(/C=C/c2ccc(O)cc2)nc2ccccc2c1=O	OVCAR-3 ovarian	TGI	=	25.7
O=C(O)c1cc2c(cc1CC(Cc1ccccc1)C(=O)O)CCC2 (stereo not given)	OVCAR-3 ovarian	TGI	>	100
COc1ccc(C2CC(C)=Nc3c([nH]c(=S)[nH]c3=O)N2)cc1 (stereo not given)	OVCAR-3 ovarian	TGI	=	55.2
Cc1ccc(C)c(NC(=O)CCc2n[nH]c(=S)o2)c1	OVCAR-3 ovarian	TGI	>	100
CC(C)=CCC[C@](C)(O)[C@H]1CC[C@]2(C)[C@@H]1CC[C@@H]1[C@@]3(C)CC[C@H](OC(=O)CCC(=O)O)C(C)(C)[C@@H]3CC[C@]12C	OVCAR-3 ovarian	TGI	=	30.9
CCCCCCCCCC[C@@H](O)[C@H]1CC[C@@H]([C@H]2CC[C@H]([C@H](O)CCCCCCCCCC[C@@H]3CC(CC(C)=O)C(=O)O3)O2)O1 (stereo not given in full)	OVCAR-3 ovarian	TGI	=	39.4
O=C(n1c(=O)n(-c2ccc([N+](=O)[O-])cc2)c(=O)n1C(=O)C(Cl)(Cl)Cl)C(Cl)(Cl)Cl	OVCAR-3 ovarian	TGI	>	100
CCCCCCCCSC(SCCCCCCCC)=C1C(=O)N(c2ccccc2)N=C1C	OVCAR-3 ovarian	TGI	>	100
NCCCN1CCN(CCCNc2ccc3ncn4c5ccccc5c(=O)c2c34)CC1	OVCAR-3 ovarian	TGI	>	25

====

# Test system: SNB-19 CNS
# ASSAY_SUMMARY: NCI tumour cell line growth inhibition, 48 h

SMILES_REPR	EXPERIMENTAL_SYSTEM	GI50
Nc1ccccc1C#Cc1ccccc1C#CCCCCO	SNB-19 CNS	35.7 µM
Cn1cc(/C=C2\C(=O)Nc3cccnc32)c2ccccc21	SNB-19 CNS	> 25 µM
O=C(Nc1ccc(-c2nc3ccc(NC(=O)c4ccc(Cl)cc4)cc3[nH]2)cc1)c1ccc(Cl)cc1	SNB-19 CNS	13.8 µM
COc1cc(Nc2ncc(-c3ccccc3)o2)cc(OC)c1OC	SNB-19 CNS	12.6 µM
O=C(N/N=C\c1cc(Cl)ccc1O)N/N=C/c1cc(Cl)ccc1O	SNB-19 CNS	> 100 µM

====

# Test system: CCRF-CEM leukemia
# ASSAY_SUMMARY: NCI tumour cell line growth inhibition, 48 h
Listing: GI50 of selected compounds
READOUT_KIND: GI50

COMPOUND	READOUT_KIND	RESULT
Cc1cc(I)cc(CN(C)CCCCN2CCCC2)c1O	GI50	31.3 µM
COc1cc(C(=O)c2c(-c3ccccc3)oc3ccccc23)cc(OC)c1O	GI50	1.71 µM
CC(Cl)CC(=O)Nc1ccc2c(c1)oc(=O)c1cc(NC(=O)CC(C)Cl)ccc12 (centres undefined)	GI50	11.1 µM
Fc1ccc(-c2c(-c3ccncc3)n(CCN3CCOCC3)c3cccnc23)cc1	GI50	> 25 µM
CCc1ccc(/C=C2/SC(=S)NC2=O)cc1	GI50	22.6 µM
O=C(/C=C/c1cccs1)Nc1ncc(Cc2ccccc2F)s1	GI50	0.254 µM
O=C(Nc1ccc(-c2nc3ccc(NC(=O)c4ccc(Cl)cc4)cc3[nH]2)cc1)c1ccc(Cl)cc1	GI50	0.433 µM
O=C(N/N=C\c1cc(Cl)ccc1O)N/N=C/c1cc(Cl)ccc1O	GI50	2.51 µM
O=c1c2c(=NCCCN3CCCC3)cc3c(=O)n(CCCN4CCCC4)c(=O)c4c(NCCCN5CCCC5)cc(c(O)n1CCCN1CCCC1)c2c4-3	GI50	5.22 µM

====

# Test system: T-47D breast
# ASSAY_SUMMARY: NCI tumour cell line growth inhibition, 48 h
READOUT_KIND: TGI

COMPOUND	READOUT_KIND	RESULT
OCC(CO)CC1COc2ccccc2O1 (stereo unspecified)	TGI	> 10 µM
COc1ccccc1OCC(O)CO (stereo unspecified)	TGI	> 100 µM
CCOC(=O)C1C2C1C1C(C(=O)OCC)C21 (stereo unspecified)	TGI	> 100 µM
c1csc(-c2csc(-c3cccs3)c2)c1	TGI	> 100 µM
Cc1ccc2c(=O)c3c(O)c4c(cc3n(C)c2c1)OC(C)(C)C=C4	TGI	> 10 µM
Clc1cccc(Cl)c1C1ON=C(c2ccccc2)N1C12CC3CC(CC(C3)C1)C2 (stereo unspecified)	TGI	> 100 µM

====

# Tested on: NCI-H460 lung
# ASSAY_SUMMARY: NCI tumour cell line growth inhibition, 48 h

COMPOUND	RELATIONAL_OPERATOR	TGI [µM]
CN(C)CCCN1C(=O)N(CCCN(C)C)c2c3cc(O)ccc3nc3c([N+](=O)[O-])ccc1c23	=	70.4
O=[N+]([O-])C(=C(c1ccccc1)c1ccccc1)[N+](=O)[O-]	=	21
Cc1ccc2c(=O)c3c(O)c4c(cc3n(C)c2c1)OC(C)(C)C=C4	>	10
C=CC(=O)N1C/C(=C\c2ccc(F)cc2)C(=O)/C(=C/c2ccc(F)cc2)C1	=	2.04
CC(Cl)CC(=O)Nc1ccc2c(c1)oc(=O)c1cc(NC(=O)CC(C)Cl)ccc12 (stereo unspecified)	=	40.9
COc1ccc(/C=C(\C#N)c2nc(-c3cc4ccccc4oc3=O)cs2)cc1	=	57.1

====

Reported TGI values for the following molecules.
# System: MDA-MB-231 breast
# ASSAY_SUMMARY: NCI tumour cell line growth inhibition, 48 h

MOLECULE	RELATIONAL_OPERATOR	TGI / µM
CN(CCc1ccccn1)C(=S)N/N=C/c1ccccn1	=	0.982
C=C1C(=O)O[C@H]2[C@H](OC(C)=O)[C@@H](C)CCC/C(C)=C/CC[C@]3(CO3)[C@H](O)C[C@@H]12	=	17.2
OCC1=C[C@@](COCc2ccccc2)(OCc2ccccc2)[C@@H](OCc2ccccc2)[C@@H]1OCc1ccccc1	=	25.4
CCc1ccc(/C=C2/SC(=S)NC2=O)cc1	=	46.7
CC(C)(C)c1ccc(C(O)(c2ccc(C(C)(C)C)cc2)c2ccc(C(C)(C)C)cc2)cc1	>	100
CCOC(=O)c1cc2cc([N+](=O)[O-])ccc2oc1=O	>	100
CC(C)=CCC/C(C)=C/CCC1(C)C2COC(=O)C21 (stereo not drawn)	>	100
CC(=O)OCC1OC(O[C@@H]2C[C@H]3C(C)(C)[C@H](OC(C)=O)CC[C@]3(C)[C@H]3CC[C@@H]4[C@]5(CC[C@@]4(C)[C@@]32C)O[C@@H]([C@H](O)C(C)(C)O)C[C@@H]5C)C(O)C(O)C1O (stereo partly drawn)	=	22.3
COc1cc(/C=C2\N=C(c3ccccc3)N(c3ccc(C(=O)c4ccccc4)cc3N3C(=O)/C(=C/c4cc(OC)c(OC)c(OC)c4)N=C3c3ccccc3)C2=O)cc(OC)c1OC	=	54
Cn1cc(/C=C2\C(=O)Nc3cccnc32)c2ccccc21	>	25
O=C(n1c(=O)n(-c2ccc([N+](=O)[O-])cc2)c(=O)n1C(=O)C(Cl)(Cl)Cl)C(Cl)(Cl)Cl	>	100
Fc1ccc(-c2c(-c3ccncc3)n(CCN3CCOCC3)c3cccnc23)cc1	>	25
Nc1ccccc1C#Cc1ccccc1C#CCCCCO	=	37

====

# System: NCI/ADR-RES ovarian
# ASSAY_SUMMARY: NCI tumour cell line growth inhibition, 48 h
Each entry below carries its reported TGI.

COMPOUND	TGI
C[C@H]1CC(=O)[C@@]2(O)C#C/C=C\C#C[C@@H]3Nc4c(cc(O)c5c4C(=O)c4ccccc4C5=O)[C@]24O[C@]314	0.44 µM
CCNC1=CC(=O)c2ncccc2C1=O	28.2 µM
O/N=C1/CCCCC1NO (centres undefined)	> 100 µM
Cc1cccc(/C=N/NC(=S)NC(C)(C)C)n1	> 100 µM
CCN(CC)c1ccc(/C=N\NC(=O)c2cccc(Nc3ccnc(C(F)(F)F)c3)c2)c(O)c1	> 28.1 µM
C=C1C[C@]23CC[C@@H]4C(CO)(CO)CC(=O)C[C@]4(C)[C@@H]2C(O)C[C@H]1C3 (some centres undefined)	> 100 µM
NC(Cc1ccccc1)C(=O)O (centres undefined)	> 100 µM
Cc1[nH]nc(C(=O)N/N=C/c2cccs2)c1N=NN(C)C	> 100 µM
CC(C)(CN1CCCCC1)C(=O)CC(SCCS(=O)(=O)O)c1ccc(Cl)c(Cl)c1 (centres undefined)	22.9 µM
CC1=C(C(=O)OC(C)C)C(c2cccc([N+](=O)[O-])c2)C(C(=O)OC(CO[N+](=O)[O-])CO[N+](=O)[O-])=C(C)N1 (centres undefined)	> 25.2 µM
O=C(Nc1ccc(-c2nc3ccc(NC(=O)c4ccc(Cl)cc4)cc3[nH]2)cc1)c1ccc(Cl)cc1	64.4 µM
OCC(CO)CC1COc2ccccc2O1 (centres undefined)	> 10 µM
NC(=O)c1ccc(-c2c3ccccc3cc3c2ccc2ccccc23)cc1	18.1 µM
Fc1ccc(-c2c(-c3ccncc3)n(CCN3CCOCC3)c3cccnc23)cc1	> 25 µM
Cc1ccc2c(=O)c3c(O)c4c(cc3n(C)c2c1)OC(C)(C)C=C4	> 10 µM
CCSc1nn(-c2c3ccccc3nc3ccccc23)c(=S)s1	> 100 µM
Cn1c(=O)n2n(c1=O)C1C(=CC2)C2C=CC1n1c(=O)n(C)c(=O)n12 (centres undefined)	> 100 µM
CNc1ccc([N+](=O)[O-])cc1C(=O)N1CCC[C@H]1CO	> 100 µM
COc1ccc(/C=C(\C#N)c2nc(-c3cc4ccccc4oc3=O)cs2)cc1	> 100 µM
